B1: scFv; the commonest letter at each place (parent)
chain 1: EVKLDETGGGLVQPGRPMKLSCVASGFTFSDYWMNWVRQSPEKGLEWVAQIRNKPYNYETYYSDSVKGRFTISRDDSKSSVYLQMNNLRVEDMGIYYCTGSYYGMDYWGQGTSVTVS
chain 2: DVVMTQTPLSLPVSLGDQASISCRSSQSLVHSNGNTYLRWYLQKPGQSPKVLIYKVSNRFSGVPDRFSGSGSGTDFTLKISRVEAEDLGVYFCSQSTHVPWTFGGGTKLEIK

variants of: B1; assay: yeast surface expression (ratio to wild type); higher = more expressed; conditions: format: scFv 4-4-20, heavy + light
metricName: yeast surface expression
No unit in the answer, only the number.

Completed entries (count: 2):
chain 1 Y103H Y107I; 1.25
chain 1 F29D W33V; 0.87

yeast surface expression reading for chain 1 Y103H G109M : 0.304
